- Test system: Kochia (Kochia scoparia)
- ASSAY_INFO: Test A postemergence
- Format: in vivo
- CONDITION_PARAMETERS: Bassia scoparia, post-emergence, 240 h, 125 g ai/ha, postemergence; visual injury on 0 to 100 scale (0 no effect, 100 complete control), approx. 10 d; read-out: Kochia plant response rating
- Text: […]
MEASURED_QUANTITY: pest or weed control at 125 g/ha (%)
Numbers only, in %.

// worked examples, pest or weed control at 125 g/ha included
- COMPOUND: "CN1C[C@H](c2csc3c2CCC3)[C@@H](C(=O)Nc2ccc(F)c(F)c2F)C1=O [Compound 1081]"
  VALUE: 0
- COMPOUND: "Cc1c(F)cccc1NC(=O)[C@H]1C(=O)NC[C@@H]1c1cc(F)c(F)c(F)c1 [Compound 1125]"
  VALUE: 0
- COMPOUND: "O=C1NC[C@H](c2ccc3c(c2)CCC3)[C@H]1C(=O)Nc1cccc(F)c1F [Compound 1046]"
  VALUE: 0
- COMPOUND: "C=C(C)c1ccc([C@H]2CN(C)C(=O)[C@@H]2C(=O)Nc2cccc(F)c2F)cc1 [Compound 1149]"
  VALUE: 30
- COMPOUND: "CN1C[C@H](c2cc(C(F)F)cs2)[C@@H](C(=O)Nc2cccc(F)n2)C1=O [Compound 1090]"
  VALUE: 30
- COMPOUND: "CN1C[C@H](c2ccc(F)c(Oc3ccccc3)c2)[C@@H](C(=O)Nc2ccccc2S(C)(=O)=O)C1=O [Compound 1143]"
  VALUE: 0
- COMPOUND: "Cc1ccc([C@H]2CN(C)C(=O)[C@@H]2C(=O)Nc2cnccc2C)cc1 [Compound 1070]"
  VALUE: 0

Now for another entry.
Request: # get_value(readout='pest or weed control at 125 g/ha', item= Cc1ccc([C@H]2CNC(=O)[C@@H]2C(=O)Nc2cccc(F)c2F)cc1C [Compound 1034] )
Response: 20

---

- Tested on: Kochia (Kochia scoparia)
- ASSAY_INFO: Test A preemergence
- Type: in vivo
- CONDITION_PARAMETERS: 125 g ai/ha, preemergence; 0 to 100 scale (0 no effect, 100 complete control)
MEASURED_QUANTITY: Plant response rating, Kochia
Give bare numbers.

// worked examples, Plant response rating, Kochia included
- COMPOUND: "O=C1NCC(c2cccc(F)c2)C1C(=O)Nc1cccc(F)c1F (racemic) [Compound 375]"
  Plant response rating, Kochia: 20
- COMPOUND: "O=C1NCC(c2ccc(C(F)(F)F)cc2F)C1C(=O)Nc1cccc(F)c1F (stereo not shown) [Compound 475]"
  Plant response rating, Kochia: 70
- COMPOUND: "O=C1NCC(c2cccc(OCC(F)F)c2)C1C(=O)Nc1cccc(F)c1F (stereo not shown) [Compound 389]"
  Plant response rating, Kochia: 0

Hey, quick one: what's Plant response rating, Kochia for each of these?
1. Cc1ccc(C2CNC(=O)C2C(=O)Nc2ccc(F)cc2F)cc1F (racemic) [Compound 370]
2. CN1CC(c2ccc(C(F)(F)F)c(F)c2)C(C(=O)Nc2ccccc2F)C1=O (stereo not shown) [Compound 399]
3. O=C1NCC(c2ccccc2-c2ccccc2)C1C(=O)Nc1cccc(F)c1F (racemic) [Compound 379]
4. CN1CC(c2ccc(C(F)(F)F)cc2F)C(C(=O)Nc2ccc(F)cc2F)C1=O (stereo not shown) [Compound 474]
5. CN1CC(c2cccc(OC(F)(F)C(F)F)c2)C(C(=O)Nc2cccc(F)c2F)C1=O (stereo not shown) [Compound 392]
6. O=C1NCC(c2ccc(Br)cc2)C1C(=O)Nc1cccc(F)c1F (stereo not shown) [Compound 446]
7. CN1CC(c2ccc(F)cc2)C(C(=O)Nc2cccc(F)c2F)C1=O (stereo not shown) [Compound 438]

Response:
1. 0
2. 80
3. 0
4. 60
5. 50
6. 50
7. 70
